System: W2 (CQ^R) P. falciparum strain
Test: In vitro fluorescence (Sybr Green I) growth inhibition assay, W2 strain
Format: cell-based
Conditions: Plasmodium falciparum, W2, read-out: IC50 (nM) W2 (CQ^R)
ENDPOINT: IC50
Answer with the number, then the unit.

State the recorded IC50 for this entry: CCN(CC)CCCC(C)Nc1ccnc2cc(Cl)ccc12 (stereo not shown)
250 nM

* * *

Test system: mitogen-induced murine spleen lymphocytes
Type: cell-based
Conditions: LC50; mouse spleen lymphocytes; 72 hours + 24 hours resazurin
Kindly supply the reported Cytotoxicity values for the records listed here.
Value expressed in nM; do not type the unit.

Please provide the recorded Cytotoxicity for `Clc1ccc2c(NCCN3CCN(C(c4ccccc4)c4ccccc4)CC3)ccnc2c1` , tested on mitogen-induced murine spleen lymphocytes.
1900

Please provide the recorded Cytotoxicity for `Clc1ccc2c(NCCCN3CCCN(C(c4ccccc4)c4ccccc4)CC3)ccnc2c1` , tested on mitogen-induced murine spleen lymphocytes.
700

Please provide the recorded Cytotoxicity for `Clc1ccc2c(NCCCN3CCCN(C4c5ccccc5-c5ccccc54)CC3)ccnc2c1` , tested on mitogen-induced murine spleen lymphocytes.
2500
